Reported IC50 values for a set of compounds
# Test system: Escherichia coli
# Assay protocol: Inhibitory activity against accumulation of [14C]-labeled Linezolid within wild-type Escherichia coli K12 cells
# Format: functional, cell-based
# Recorded conditions: K-12, K12
Residues, ends and D or L forms follow the SMILES beside them. *: point of attachment. βNA = c1ccc2cc(N*)ccc2c1

- Compound: "N=C(N)NCCC[C@H](NC(=O)[C@@H](N)Cc1ccccc1)C(=O)Nc1ccc2ccccc2c1 [PABETAN] (H-Phe-Arg-βNA)"
  Target of assay: "Escherichia coli"
  IC50: "730 µM"
- Compound: "Clc1cccc(Cl)c1CCC1CCCNC1 (configuration not stated)"
  Target of assay: "Escherichia coli"
  IC50: "290 µM"
- Compound: "Cl.F[C@H]1CCNC[C@@H]1Cc1cc(Br)ccc1Cl"
  Target of assay: "Escherichia coli"
  IC50: "> 900 µM"

## Task For Escherichia coli, give the measured IC50 of the entry Cl.Clc1ccc(Br)cc1/C=C/C1CCCNC1 (configuration not stated)
## Result 140 µM

## Task Supply IC50 measured with Escherichia coli for Cl.Clc1ccc(Br)cc1CC1=CCCNC1 .
## Result 600 µM

## Task State recorded IC50 with Escherichia coli, entry Cl.O[C@H]1CCNC[C@@H]1Cc1cc(Br)ccc1Cl , no comment.
## Result > 900 µM
